Tested on: S. aureus ATCC 6538
Format: cell-based, Staphylococcus aureus
ASSAY CONDITIONS: ATCC 6538, 18 h
Peptide text beside a SMILES is read from it. * marks the point of attachment. Decanoyl = CCCCCCCCCC(=O)*; X1 = O=C(/C=C/c1ccccc1)*; Hexanoyl = CCCCCC(=O)*
TEST READOUT: MIC (µg/mL)
Give a bare numeral; the unit µg/mL is implied.

Incoming: Can you share its MIC? I mean this compound: CC[C@H](C)[C@H](NC(=O)[C@H](CCCNC(=N)N)NC(=O)[C@H](CCC(N)=O)NC(=O)[C@@H](NC(=O)[C@@H](NC(=O)[C@H](CCCNC(=N)N)NC(=O)[C@H](CCCCN)NC(=O)/C=C/c1ccccc1)[C@@H](C)CC)C(C)C)C(=O)N[C@@H](CCCCN)C(=O)N[C@@H](CC(=O)O)C(=O)N[C@@H](Cc1ccccc1)C(=O)N[C@@H](CC(C)C)C(=O)N[C@@H](CCCNC(=N)N)C(N)=O [IX, trans-Cinnamic acid-KR12-NH2] (X1-KRIVQRIKDFLR-NH2)
Outgoing: 2

More entries:
Incoming: Request the reported MIC associated with CCCCCCCCCC(=O)N[C@@H](CCCCN)C(=O)N[C@@H](CCCNC(=N)N)C(=O)N[C@H](C(=O)N[C@H](C(=O)N[C@@H](CCC(N)=O)C(=O)N[C@@H](CCCNC(=N)N)C(=O)N[C@H](C(=O)N[C@@H](CCCCN)C(=O)N[C@@H](CC(=O)O)C(=O)N[C@@H](Cc1ccccc1)C(=O)N[C@@H](CC(C)C)C(=O)N[C@@H](CCCNC(=N)N)C(N)=O)[C@@H](C)CC)C(C)C)[C@@H](C)CC [V, C10-KR12-NH2] (Decanoyl-KRIVQRIKDFLR-NH2)
Outgoing: 4

Incoming: Consider the compound shown here: CCCCCC(=O)N[C@@H](CCCCN)C(=O)N[C@@H](CCCNC(=N)N)C(=O)N[C@H](C(=O)N[C@H](C(=O)N[C@@H](CCC(N)=O)C(=O)N[C@@H](CCCNC(=N)N)C(=O)N[C@H](C(=O)N[C@@H](CCCCN)C(=O)N[C@@H](CC(=O)O)C(=O)N[C@@H](Cc1ccccc1)C(=O)N[C@@H](CC(C)C)C(=O)N[C@@H](CCCNC(=N)N)C(N)=O)[C@@H](C)CC)C(C)C)[C@@H](C)CC [III, C6-KR12-NH2] (Hexanoyl-KRIVQRIKDFLR-NH2) What is its recorded MIC?
Outgoing: 4
